This collection of values is drawn from PubChem BioAssay (NCI).

system: MDA-MB-231 breast; test: NCI-60 one-dose screen, 48 h (100 = growth as untreated, 0 = no growth, -100 = all killed); details: 10 µM unless noted
About 83,000 compounds went through this panel and 20% of them were active in at least one assay; those are over-represented in the sample as a whole.
Listed compounds paired with reported growth
Report the value in % with no unit label.

Examples from the recorded data:
> print(dat)
                                   compound  observed.value
1                             CC1(O)CCCCCC1             106
2  O=C(C[P+](c1ccccc1)(c1ccccc1)c1ccccc1)c1ccccc1            84.5
3  CC(=O)c1c(O)c(C)c(O)c2c1OC1=CC(=O)C(C(C)=O)C(=O)C12C (stereo not given)            96.3
4  O=C(c1ccccc1)N(CCCl)C(=O)N(CCCl)C(=O)c1ccccc1            82.1

Prompt: Record request: growth value, item `CN(C)c1ccc(/C=C/c2nccc3ccccc23)cc1`
Response: 51.3

###

system: HOP-92 NSCLC; experiment: NCI-60 one-dose screen, 48 h; settings: 10 µM unless noted
Compounds without any hit were thinned out: in the full panel of roughly 83,000, 20% have a hit. Activity calls are given as the source filed them. The calls were made as follows: active = growth percent below 10; inactive = the rest. *1 amine or outer side, *2 acyl side, *3 side chain or, on linkers, in order; H or OH if unused. Where a SMILES comes first, the peptide text is derived from it. Bridges are numbered along the chain shown (N, C = ends). Roman numbers before positions name the chains, in order. [ ]: non-standard residue; d: D form. Actinocin(1to9) = Cc1c2oc3c(C)ccc(C(=O)[*:2])c3nc-2c(C(=O)[*:1])c(N)c1=O; NMeV = CN[CH](C(=O)O)C(C)C; Sar = CNCC(=O)O
Just give me one of these, please: active, inactive

Compound	System	Class
CN(Cc1ccccc1)c1ccc(SC#N)cc1	HOP-92 NSCLC	inactive
CCCCCCCCCCCCCCCCCC1=NCCCN1CCO	HOP-92 NSCLC	inactive
OC(c1cc(-c2ccc(Cl)cc2)nc2c(Cl)cccc12)C1CCCCN1 (centres undefined)	HOP-92 NSCLC	active

Prompt: Dear colleague, could you share the recorded outcome for `O=[N+]([O-])c1ccc(C(Br)c2ccc([N+](=O)[O-])cc2)cc1` when you have a moment?
Response: inactive

Prompt: // outcome(item) with item = `CCOC(=O)C1=NN(c2ccccc2)C(=O)/C1=C\N1C(=O)/C(=C/c2cccc(O)c2)SC1=S`
Response: inactive

Prompt: Which outcome was entered for the compound `Fc1ccc(NCCS)cc1` in this test?
Response: inactive

Prompt: Assay result, entry `c1ccc2sc(SSN3CC4CCC(CC4)C3)nc2c1` — outcome?
Response: inactive

Prompt: Look up the recorded call for `CCCCCCCCCCCCCCCc1ccc(C(=O)C[n+]2ccccc2)cc1` in this test.
Response: active

Prompt: For CCC(C)C1NC(=O)C(NC(=O)c2c3nc4c(C(=O)NC5C(=O)NC(C(C)CC)C(=O)N6CCCC6C(=O)N(C)CC(=O)N(C)C(C(C)C)C(=O)OC5C)ccc(C)c4oc-3c(C)c(=O)c2N)C(C)OC(=O)C(C(C)C)N(C)C(=O)CN(C)C(=O)C2CCCN2C1=O (centres undefined) (I: TIP[Sar][NMeV] / II: TIP[Sar][NMeV]; ester I:1-I:C, II:1-II:C; linker I:N-II:N via Actinocin(1to9); configuration not given here) , which call appears in the assay record?
Response: active

Prompt: Recorded call for `CCCCCCCCCCCC1=NCCCN1CCCC` ?
Response: inactive

Prompt: Please state the recorded outcome for this compound: `O=C(NOC(=O)c1ccccc1)c1ccccc1`
Response: inactive

Prompt: // param item: CCOc1ccc(C(C[N+](=O)[O-])Sc2ccccc2N)cc1 (centres undefined) ; yields the recorded call
Response: inactive

Prompt: Can you look up the reported call for COc1cc([C@@H]2c3cc4c(cc3[C@H](OC3OC5COC(c6ccccc6)OC5C(O)C3O)[C@H]3COC(=O)[C@H]23)OCO4)cc(OC)c1OC (some centres undefined) for me?
Response: inactive

Prompt: Test call, this compound: `CC(C)(C)c1ccc(CCO)cc1`
Response: inactive

Prompt: Recorded test call requested for CC(/C=N/NC(N)=S)Cc1ccc(C(C)C)cc1 (centres undefined)
Response: inactive

Prompt: Each compound tested received a call. Report the one for `Clc1ccccc1C(c1ccccc1)(c1ccccc1)n1ccnc1` .
Response: inactive

Prompt: Per the assay record, what outcome was assigned to `Oc1cc(Cl)ccc1Cc1ccc(Cl)cc1O` ?
Response: active

Prompt: State the result this test recorded for COC1CC(C)C(OC)c2cc(O)cc(c2O)NC(=O)/C(C)=C/C=C\C(C)C(OC(N)=O)/C(C)=C\C(C)C1OC (centres undefined) .
Response: inactive

Prompt: Entry `COc1cc(NC(=O)C2=C(C)NC(C)=C(C(=O)Nc3cc(OC)c(Cl)cc3OC)C2c2cccc([N+](=O)[O-])c2)c(OC)cc1Cl` : call = ?
Response: inactive

Prompt: Test call for this compound, please: `Cc1oc2c(C)c3oc(=O)cc(C)c3cc2c1CCl`
Response: inactive
